# Test system: Mycobacterium tuberculosis H37Rv
# Experiment notes: Inhibition of PKS13 in Mycobacterium tuberculosis H37Rv assessed as reduction in bacterial growth after […] by MABA
Value type: MIC=<90 (µg/mL)

1. COc1ccc2c(c1)oc(=O)c1c2oc2ccc3c(c21)CN(CC1CC1)CO3 : 2
2. CCOC(=O)c1c(-c2ccccc2)oc2ccc3c(c12)CN(CCC(C)C)CO3 : 4
3. CCOC(=O)c1c(-c2ccc(C)cc2)oc2ccc3c(c12)CN(CC1CC1)CO3 : 4
4. O=c1oc2ccc(Cl)cc2c2oc3ccc4c(c3c12)CN(CC1CC1)CO4 : 16
5. Cc1ccc2oc(=O)c3c(oc4ccc5c(c43)CN(CC3CC3)CO5)c2c1 : 4
6. CCOC(=O)c1c(-c2ccccc2)oc2ccc3c(c12)CN(C1CCCC1)CO3 : 2
7. COc1ccc2oc(=O)c3c(oc4ccc(O)c(CN5CCCCC5)c43)c2c1 : 4
8. Cc1ccc2oc(=O)c3c(oc4ccc(O)c(CN5CCCCC5)c43)c2c1 : 0.5

---

# Experiment notes: Selectivity index, ratio of IC50 for African green monkey Vero cells to MIC=<90 for Mycobacterium tuberculosis H37Rv
# Format: toxicity
# Test settings: read-out: Selectivity Index
Value type: selectivity ratio

1. O=c1oc2cc(F)ccc2c2oc3ccc(O)c(CN4CCCCC4)c3c12 : 8
2. O=c1oc2cc(Br)ccc2c2oc3ccc(O)c(CN4CCCCC4)c3c12 : 8
3. CCOC(=O)c1c(-c2ccccc2)oc2ccc(O)c(CN3CCC(C)CC3)c12 : 16
4. CCOC(=O)c1c(-c2ccc(F)cc2)oc2ccc(O)c(CN3CCCCC3)c12 : 32
5. O=c1oc2ccccc2c2oc3ccc4c(c3c12)CN(C1CCCC1)CO4 : 1
6. Cc1ccc2oc(=O)c3c(oc4ccc(O)c(CN5CCCCC5)c43)c2c1 : 16
7. COc1ccc2c(c1)oc(=O)c1c2oc2ccc(O)c(CN3CCCCC3)c21 : 16
8. CCOC(=O)c1c(-c2ccccc2)oc2ccc3c(c12)CN(CC1CC1)CO3 : 8

---

# Experiment notes: Metabolic stability in human liver microsomes assessed as parent compound remaining at 10 uM after 60 mins in presence of NADPH
# Type: ADME, microsome
# Test settings: read-out: Stability
Value type: remaining at 1 h, 10 µM (%)

1. O=c1oc2ccccc2c2oc3ccc(O)c(CN4CCCCC4)c3c12 : 14.5
2. COc1ccc2c(c1)oc(=O)c1c2oc2ccc(O)c(CN3CCCCC3)c21 : 45.5

---

# Experiment notes: Selectivity index, ratio of IC50 for human HEK293 cells to MIC=<90 for Mycobacterium tuberculosis H37Rv
# Format: toxicity
# Test settings: read-out: Selectivity Index
Listed here: items and their measured selectivity ratio.
Value type: selectivity ratio

1. COc1ccc2c(c1)oc(=O)c1c2oc2ccc(O)c(CN3CCCCC3)c21 : > 100
2. O=c1oc2ccccc2c2oc3ccc(O)c(CN4CCCCC4)c3c12 : > 100

---

Listed here: items and their measured MIC=<90.
# System: Mycobacterium tuberculosis H37Rv
# Experiment notes: Inhibition of PKS13 in Mycobacterium tuberculosis H37Rv assessed as reduction in bacterial growth after […] by MABA
Value type: MIC=<90 (µg/mL)

1. CCOC(=O)c1c(-c2ccccc2)oc2ccc(O)c(CN3CCC(CO)CC3)c12 : 16
2. CCOC(=O)c1c(-c2ccccc2)oc2ccc(O)c(CN3CCCCC3)c12 : 2
3. COc1ccc2c(c1)oc(=O)c1c2oc2ccc(O)c(CN3CCCCC3)c21 : 0.25
4. CCOC(=O)c1c(-c2ccc(OC)cc2)oc2ccc(O)c(CN3CCCCC3)c12 : 16
5. CCOC(=O)c1c(-c2ccc(F)cc2OC)oc2ccc(O)c(CN3CCCCC3)c12 : 8

---

# Experiment notes: Selectivity index, ratio of IC50 for human QSG7701 cells to MIC=<90 for Mycobacterium tuberculosis H37Rv
# Type: toxicity
# Test settings: read-out: Selectivity Index
Value type: selectivity ratio

1. O=c1oc2ccccc2c2oc3ccc(O)c(CN4CCCCC4)c3c12 : > 100
2. COc1ccc2c(c1)oc(=O)c1c2oc2ccc(O)c(CN3CCCCC3)c21 : > 100

---

Listed here: items and their measured log10 MIC=<90.
# Test system: Mycobacterium tuberculosis H37Rv
# Experiment notes: Inhibition of PKS13 in Mycobacterium tuberculosis H37Rv assessed as reduction in bacterial growth after […] by MABA
Value type: log10 MIC=<90 (log10 of the value in µg/mL)

1) COc1ccc2oc(=O)c3c(oc4ccc5c(c43)CN(CC3CC3)CO5)c2c1 : 1.20
2) O=c1oc2ccccc2c2oc3ccc4c(c3c12)CN(CC1CC1)CO4 : 0.30
3) Cc1cc2oc(=O)c3c(oc4ccc5c(c43)CN(CC3CC3)CO5)c2cc1C : 0.90
4) O=C(NCc1ccccc1)c1c(-c2ccccc2)oc2ccc(O)c(CN3CCCCC3)c12 : 1.20
5) O=c1oc2ccccc2c2oc3ccc4c(c3c12)CN(C1CCCCC1)CO4 : 1.20
6) CCCN(CCC)Cc1c(O)ccc2oc(-c3ccccc3)c(C(=O)OCC)c12 : 0.90
7) O=c1oc2ccc(Br)cc2c2oc3ccc4c(c3c12)CN(CC1CC1)CO4 : 0.90
8) CCOC(=O)c1c(-c2cc(C)ccc2OC)oc2ccc3c(c12)CN(CC1CC1)CO3 : 0.90
9) CCOC(=O)c1c(-c2ccccc2)oc2ccc3c(c12)CN(C1CC1)CO3 : 1.20
10) CCOC(=O)c1c(-c2ccc(OC)cc2)oc2ccc3c(c12)CN(CC1CC1)CO3 : 0.30
11) CCOC(=O)c1c(-c2ccccc2)oc2ccc(O)c(CN3CCCC3)c12 : 0.30
12) O=c1oc2ccccc2c2oc3ccc4c(c3c12)CN(C1CCCC1)CO4 : -0.30
13) CCOC(=O)c1c(-c2ccc(OC)cc2OC)oc2ccc(O)c(CN3CCCCC3)c12 : 1.20
14) CCOC(=O)c1c(-c2ccccc2)oc2ccc(OC)c(CN3CCCCC3)c12 : 1.20
15) O=c1oc2ccc(F)cc2c2oc3ccc4c(c3c12)CN(CC1CC1)CO4 : 1.20
16) CCOC(=O)c1c(-c2cc(C)c(C)cc2OC)oc2ccc(O)c(CN3CCCCC3)c12 : 0.60
17) O=C(NC1CC1)c1c(-c2ccccc2)oc2ccc(O)c(CN3CCCCC3)c12 : 0.90

---

# System: Mycobacterium tuberculosis H37Rv
# Experiment notes: Inhibition of PKS13 in Mycobacterium tuberculosis H37Rv assessed as reduction in bacterial growth after […] by MABA
Listed here: items and their measured MIC=<90.
Value type: MIC=<90 (µg/mL)

1) CCNC(=O)c1c(-c2ccccc2)oc2ccc(O)c(CN3CCCCC3)c12 : 4
2) CCOC(=O)c1c(-c2ccc(C(F)(F)F)cc2)oc2ccc(O)c(CN3CCCCC3)c12 : 8
3) O=c1oc2cc(Br)ccc2c2oc3ccc(O)c(CN4CCCCC4)c3c12 : 1

---

# Test system: Mycobacterium tuberculosis H37Rv
# Experiment notes: Inhibition of PKS13 in Mycobacterium tuberculosis H37Rv assessed as reduction in bacterial growth after […] by MABA
Value type: MIC=<90 (µg/mL)

1) O=C(Nc1ccccc1)c1c(-c2ccccc2)oc2ccc(O)c(CN3CCCCC3)c12 : 8
2) CCOC(=O)c1c(-c2ccccc2)oc2ccc3c(c12)CN(CC1CC1)CO3 : 1
3) O=c1oc2cc(F)ccc2c2oc3ccc(O)c(CN4CCCCC4)c3c12 : 1
4) CCOC(=O)c1c(-c2ccc(F)cc2)oc2ccc(O)c(CN3CCCCC3)c12 : 0.5

---

# Experiment notes: Selectivity index, ratio of IC50 for human HFL1 cells to MIC=<90 for Mycobacterium tuberculosis H37Rv
# Format: toxicity
# Test settings: read-out: Selectivity Index
Listed here: items and their measured selectivity ratio.
Value type: selectivity ratio

1. O=c1oc2ccccc2c2oc3ccc(O)c(CN4CCCCC4)c3c12 : > 100
2. COc1ccc2c(c1)oc(=O)c1c2oc2ccc(O)c(CN3CCCCC3)c21 : > 100

---

# Experiment notes: Selectivity index, ratio of IC50 for human MRC5 cells to MIC=<90 for Mycobacterium tuberculosis H37Rv
# Type: toxicity
# Test settings: read-out: Selectivity Index
Value type: selectivity ratio

1) COc1ccc2c(c1)oc(=O)c1c2oc2ccc(O)c(CN3CCCCC3)c21 : > 100
2) O=c1oc2ccccc2c2oc3ccc(O)c(CN4CCCCC4)c3c12 : > 100

---

# Test system: Mycobacterium tuberculosis H37Rv
# Experiment notes: Inhibition of PKS13 in Mycobacterium tuberculosis H37Rv assessed as reduction in bacterial growth after […] by MABA
Value type: MIC=<90

1. O=C(O)c1c(-c2ccccc2)oc2ccc(O)c(CN3CCCCC3)c12 : > 64 µg/mL
2. O=c1oc2ccccc2c2oc3ccc(O)c(CN4CCCCC4)c3c12 : 0.125 to 0.25 µg/mL
3. CCOC(=O)c1c(-c2ccccc2)oc2ccc(O)c(CN3CCC(C)CC3)c12 : 2.5 µM
4. CCOC(=O)c1c(-c2ccccc2)oc2ccc(O)c(CN3CCOCC3)c12 : > 64 µg/mL
